Data credit: PubChem BioAssay (EPA / NIEHS)

- Read-out: Low-density lipoprotein receptor (LDLR), LDLR (gene 3949)
- measurement_notes: BSK_CASM3C_LDLR: BioMAP Diversity Plus: CASM3C Assay for Low-density lipoprotein receptor (LDLR) Biomarker Activity (AID 2283045);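 note: LDLR protein level on the cell surface quantified by ELISA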
- condition_description: primary human coronary artery smooth muscle cells; actives raise or lower the signal
Active and inactive are the calls of the source. Rule for the calls: active = hit-call score of the fitted dose curve at least 0.9, where 1 is the maximum; inactive = score below 0.9.
readout_name: AC50

| compound | experimental_result |
| --- | --- |
| CC[C@@H]1C[C@H](N(Cc2cc(C(F)(F)F)cc(C(F)(F)F)c2)C(C)=O)c2cc(C(F)(F)F)ccc2N1C(=O)OC(C)C | 1.22 µM (active) |
| O=C=NCCCCCCN=C=O | inactive |
| OC12N=C(c3ccccc3)SC1Cc1cc(Cl)ccc12 (stereo not given) | inactive |
| O=C1c2ccccc2C(=O)N1CCc1noc(-c2ccc(CN3CCCCCC3)s2)n1 | 27.1 µM (active) |
| C[C@]12CC[C@@H]3c4ccc(O)cc4CC[C@H]3[C@@H]1CC[C@H]2O | inactive |
